# Assay System: human TLR7 (Homo sapiens, UniProt Q9NYK1)
# Construct: host or cells: HEK blue hTLR7 reporter cells
# Sequence (Q9NYK1 27-1049): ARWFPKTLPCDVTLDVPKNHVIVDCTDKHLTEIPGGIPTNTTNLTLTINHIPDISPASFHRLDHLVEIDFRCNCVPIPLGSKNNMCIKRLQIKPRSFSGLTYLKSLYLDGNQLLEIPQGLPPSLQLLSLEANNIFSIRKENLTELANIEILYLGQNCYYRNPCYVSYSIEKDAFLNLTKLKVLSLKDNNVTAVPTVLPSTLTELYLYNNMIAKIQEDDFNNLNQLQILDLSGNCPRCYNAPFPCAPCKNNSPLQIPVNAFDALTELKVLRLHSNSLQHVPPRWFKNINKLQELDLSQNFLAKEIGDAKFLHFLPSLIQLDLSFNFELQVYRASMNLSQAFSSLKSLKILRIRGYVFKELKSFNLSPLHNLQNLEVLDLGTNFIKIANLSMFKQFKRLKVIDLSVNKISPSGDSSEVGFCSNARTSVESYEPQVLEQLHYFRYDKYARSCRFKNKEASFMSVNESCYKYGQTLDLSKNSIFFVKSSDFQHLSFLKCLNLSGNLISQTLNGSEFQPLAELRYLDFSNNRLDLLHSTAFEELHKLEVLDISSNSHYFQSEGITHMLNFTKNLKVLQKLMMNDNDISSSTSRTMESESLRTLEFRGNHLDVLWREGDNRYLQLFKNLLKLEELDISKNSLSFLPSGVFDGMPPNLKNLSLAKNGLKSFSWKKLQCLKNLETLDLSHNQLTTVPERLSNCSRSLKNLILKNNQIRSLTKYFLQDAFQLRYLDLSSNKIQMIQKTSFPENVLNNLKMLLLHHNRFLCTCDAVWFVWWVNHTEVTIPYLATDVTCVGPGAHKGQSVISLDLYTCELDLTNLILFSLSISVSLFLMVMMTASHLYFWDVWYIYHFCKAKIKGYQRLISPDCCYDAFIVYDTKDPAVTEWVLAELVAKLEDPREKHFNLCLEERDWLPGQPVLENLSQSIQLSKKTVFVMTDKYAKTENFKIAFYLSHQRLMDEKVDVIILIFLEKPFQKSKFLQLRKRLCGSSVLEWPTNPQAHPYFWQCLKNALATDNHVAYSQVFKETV
# Assay Name: HEK-Blue hTLR7 SEAP reporter assay
# Format: cell-based
# Measurement Parameters: Figure S3; axis c/[µM]; pooled from 3 experiments; read-out: compound-specific EC50 in dose response plot, HEK Blue hTLR7
Reported Property: EC50 (µM)

Worked examples follow.
What the record says about CCCCc1nc2c(N)nc3ccccc3c2n1CCC1CCNCC1 [A1] : EC50 is 0.146

Reported EC50 ( CCCCc1nc2c(N)nc3ccccc3c2n1CCOCCOCCO [A4] ) = 1.76

Record CCCCc1nc2c(N)nc3ccccc3c2n1CC1CCN(C(=O)CN(C)CC(=O)N(C)[C@H]2C[C@@H](C)O[C@@H](O[C@@H]3[C@@H](C)[C@H](O[C@H]4C[C@@](C)(OC)[C@@H](O)[C@H](C)O4)[C@@H](C)C(=O)O[C@H](CC)[C@@](C)(O)[C@H](O)[C@@H](C)N(C)C[C@H](C)C[C@@]3(C)O)[C@@H]2O)CC1 [A2-mac] . Reported EC50: 1.76

Per the records, this compound ( CCCCc1nc2c(N)nc3ccccc3c2n1CCC1CCN(C(=O)CN(C)CC(=O)N(C)C2CC(C)OC(OC3C(C)C(OC4CC(C)(OC)C(O)C(C)O4)C(C)C(=O)OC(CC)C(C)(O)C(O)C(C)N(C)CC(C)CC3(C)O)C2O)CC1 (centres unmarked) [A1-mac] ) has EC50 equal to 0.554

1: CCCCc1nc2c(N)nc3ccccc3c2n1CCC1CCN(C(=O)OC(C)(C)C)CC1 [A1-boc]
2: CCCCc1nc2c(N)nc3ccccc3c2n1CCOCCOCCN [A3]
3: CCCCc1nc2c(N)nc3ccccc3c2n1CC1CCNCC1 [A2]
4: CC(C)Cn1cnc2c(N)nc3ccccc3c21 [IMQ, Imiquimod]
Sort by EC50, descending. A complete answer lists every label in the requested sequence. 4, 2, 1, 3
(4: 6.52 µM, 2: 1.24 µM, 1: 0.527 µM, 3: 0.0957 µM)

* * *

# Assay Name: Compound concentrations in organs and plasma after three consecutive daily s.c. treatments (Figure 6B, S7)
# Format: in vivo, mice
# Measurement Parameters: mouse, brain, sc; after 52 h; repeated daily s.c. treatment; read-out: concentration in brain
Reported Property: concentration at 52 h (µM)
Lab book: enter the figure in µM, no units written.

Reported concentration at 52 h of "CC(C)Cn1cnc2c(N)nc3ccccc3c21" : 0.177

* * *

# Assay Name: Compound concentrations in organs after activity-adjusted s.c. doses (Figure 5B)
# Format: in vivo, C57BL/6 mice
# Measurement Parameters: female, C57BL/6, mouse, liver, sc; 3 µmol/kg s.c., 8 h post compound application; read-out: concentration in liver
# Procedure: All samples were extracted with 3 or 6 volumes acetonitrile containing terbuthylazine as an internal standard (ACN) relative to either sample weight or volume. […] Quantification of analytes was performed on an Agilent 1260/1290 Infinity system fitted with an Agilent C18 Poroshell 120 column (4.6 x 50 mm, 2.7 µm) coupled to a triple quadrupole Sciex API 4000 MS/MS detector. […]
Reported Property: concentration at 8 h (µM)

A: CCCCc1nc2c(N)nc3ccccc3c2n1CCC1CCN(C(=O)CN(C)CC(=O)N(C)C2CC(C)OC(OC3C(C)C(OC4CC(C)(OC)C(O)C(C)O4)C(C)C(=O)OC(CC)C(C)(O)C(O)C(C)N(C)CC(C)CC3(C)O)C2O)CC1 (centres unmarked)
B: CCCCc1nc2c(N)nc3ccccc3c2n1CCC1CCNCC1
Please tell me which of the two, A or B , has the higher reported concentration at 8 h value. Answer by quoting the chosen item's label. A
